System: T1, human serum albumin (human, UniProt P02768 25-609)
T1 construct: immobilized on chips or coated on plates elsewhere; also called HSA; HuSA
Experimental protocol: SPR, albumin immobilized;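 also: biacore SPR with human, rhesus or mouse serum albumin amine-coupled to the chip (about 1200 RU), 3 min association, 6-10 min dissociation, reference-subtracted traces fitted with a 1:1 model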
Property: koff; scope: individual binders
All answers are understood in s⁻¹, so give the number only.

PCSK9-PKE2 tandem Adnectin w/ his tag 4472_C06 (designed binder, also called ATI-1574; ADX_4472_C06) MGVSDVPRDLEVVAATPTSLLISWDAPAEGYGYYRITYGETGGNSPVQEFTVPVSKGTATISGLKPGVDYTITVYAVEFDFPGAGYYHRPISINYRTEPSTPPTPSPSTPPTPSPSGVSDVPRDLEVVAATPTSLLISWDAPAVTVRYYRITYGREVQKYSDLGPLYIYQEFTVPGSKSTATISGLKPGVDYTITVYAVTGSGESPASSKPISINYRTEHHHHHH    0.000289
PKE2 Adnectin 2629_E06 (designed binder, 10Fn3 domain with modified CD loop; the entry includes the His6 tail; also called ADX_2629_E06) MGVSDVPRDLEVVAATPTSLLISWDAPAVTVRYYRITYGREVQKYSDLGPLYIYQEFTVPGSKSTATISGLKPGVDYTITVYAVTGSGESPASSKPISINYRTEIDKPSQHHHHHH    0.000213

Read the next record carefully.
koff reading for PCSK9-PKE2 tandem 4472_F08 (designed binder, The real molecule is ONE polypeptide: PCSK9 domain, undisclosed linker F, PKE2 domain. It is given here as two chains because the linker letters are unknown., not shown: The inter-domain linker) PCSK9 domain: MGVSDVPRDLEVVAATPTSLLISWDAPAEGYGYYRITYGETGGNSPVQEFTVPVSKGTATISGLKPGVDYTITVYAVEFDFPGAGYYHRPISINYRTE PKE2 domain: GVSDVPRDLEVVAATPTSLLISWDAPAVTVRYYRITYGREVQKYSDLGPLYIYQEFTVPGSKSTATISGLKPGVDYTITVYAVTGSGESPASSKPISINYRTEHHHHHH : 0.000324

The measurements presented in this section are drawn from patent US20200048328A1.
